Value source: ChEMBL document CHEMBL1122205

# experimental.system: Catechol O-methyltransferase (Rattus norvegicus) (UniProt P22734)
# Sequence (P22734 whole entry): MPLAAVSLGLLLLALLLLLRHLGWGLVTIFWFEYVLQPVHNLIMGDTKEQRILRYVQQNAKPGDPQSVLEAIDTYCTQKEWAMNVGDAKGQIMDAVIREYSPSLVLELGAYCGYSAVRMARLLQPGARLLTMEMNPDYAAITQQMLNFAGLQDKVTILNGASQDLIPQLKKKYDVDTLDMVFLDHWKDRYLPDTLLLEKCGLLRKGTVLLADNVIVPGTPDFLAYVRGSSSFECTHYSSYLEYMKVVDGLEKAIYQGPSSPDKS
# protocol.notes: Compound was evaluated for its ability to inactivate Catechol O-methyltransferase after dialysis
property.name: residual activity (c.p.m.)

(I) Cc1c(O)c(O)c(C)c2[nH]ccc12
(II) Cc1c(O)c(O)cc2[nH]ccc12
## Input Just tell me: smaller residual activity value, I or II ? Indicate your choice by writing its label.
## Output I

====

# experimental.system: Catechol O-methyltransferase (Rattus norvegicus)
# protocol.notes: Evaluated for its ability to inactivate Catechol O-methyltransferase under aerobic conditions, after 60 min at 37 degree. C
# Set-up: concentration or dose not given beside the values
property.name: residual activity (%)

• NCCc1c[nH]c2cc(O)c(O)cc12 = 0
• Cc1c(O)c(O)cc2cc[nH]c12 = 0
• Oc1cc2cc[nH]c2cc1O = 0

(P) Cc1c(O)c(O)cc2[nH]ccc12
(Q) Cc1c(O)c(O)c(C)c2[nH]ccc12
## Input Just tell me: smaller residual activity value, P or Q ? Indicate your choice by writing its label.
## Output P
